Data origin: paper PMC10143053

molecular target: xanthine oxidase (Bos taurus); construct: gene XDH; assay: biochemical

molecule: Cc1cc(O)cc2oc(=O)c3c(O)cc(O)cc3c12 [AOH, alternariol]
IC50, µM: 10.6

====

target: xanthine oxidase (Bos taurus, UniProt P80457); construct: gene XDH; assay: biochemical; conditions: read-out: IC50
Sequence (P80457 2-1332): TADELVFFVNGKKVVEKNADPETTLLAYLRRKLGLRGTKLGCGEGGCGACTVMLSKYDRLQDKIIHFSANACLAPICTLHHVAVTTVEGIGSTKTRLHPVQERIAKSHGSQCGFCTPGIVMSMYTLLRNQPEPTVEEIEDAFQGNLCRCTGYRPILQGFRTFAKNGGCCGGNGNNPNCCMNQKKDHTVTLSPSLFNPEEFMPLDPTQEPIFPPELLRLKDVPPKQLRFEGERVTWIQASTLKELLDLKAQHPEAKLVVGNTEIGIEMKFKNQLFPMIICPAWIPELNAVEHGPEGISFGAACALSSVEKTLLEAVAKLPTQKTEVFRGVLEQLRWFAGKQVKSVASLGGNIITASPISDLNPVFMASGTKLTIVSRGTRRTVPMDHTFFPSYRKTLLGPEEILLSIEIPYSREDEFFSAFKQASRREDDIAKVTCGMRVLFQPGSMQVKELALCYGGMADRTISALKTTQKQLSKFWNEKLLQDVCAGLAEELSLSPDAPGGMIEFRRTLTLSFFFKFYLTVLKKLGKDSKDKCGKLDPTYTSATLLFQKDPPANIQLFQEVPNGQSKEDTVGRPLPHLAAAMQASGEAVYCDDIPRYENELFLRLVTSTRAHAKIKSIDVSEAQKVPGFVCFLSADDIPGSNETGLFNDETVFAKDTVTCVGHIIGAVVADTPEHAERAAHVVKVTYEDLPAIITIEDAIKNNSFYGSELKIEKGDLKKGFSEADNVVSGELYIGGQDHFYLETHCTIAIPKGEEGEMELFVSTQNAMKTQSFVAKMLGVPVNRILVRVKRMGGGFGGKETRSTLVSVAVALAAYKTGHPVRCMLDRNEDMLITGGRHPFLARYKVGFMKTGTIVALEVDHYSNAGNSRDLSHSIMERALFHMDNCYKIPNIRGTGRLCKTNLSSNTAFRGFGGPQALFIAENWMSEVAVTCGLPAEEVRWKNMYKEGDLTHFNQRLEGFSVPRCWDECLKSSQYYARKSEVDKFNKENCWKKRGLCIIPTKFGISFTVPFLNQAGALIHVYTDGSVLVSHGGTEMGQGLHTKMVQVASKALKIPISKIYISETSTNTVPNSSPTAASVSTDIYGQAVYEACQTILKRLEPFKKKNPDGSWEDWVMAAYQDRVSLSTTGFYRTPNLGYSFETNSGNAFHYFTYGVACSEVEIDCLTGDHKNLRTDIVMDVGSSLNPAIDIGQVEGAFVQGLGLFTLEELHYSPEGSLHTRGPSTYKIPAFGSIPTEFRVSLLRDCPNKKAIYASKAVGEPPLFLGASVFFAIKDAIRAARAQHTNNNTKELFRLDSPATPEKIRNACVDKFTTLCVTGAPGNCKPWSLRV
readoutName: IC50 (µM)

molecule: C[C@H]1CCC[C@H](O)CCC/C=C/c2cc(O)cc(O)c2C(=O)O1 [α-ZEL, α-zearalenol]
unitInfo: µM
val: 17.1
--
molecule: Cc1cc(OS(=O)(=O)O)cc2oc(=O)c3c(O)cc(O)cc3c12 [AS, alternariol-3-sulfate]
unitInfo: µM
val: 15
